- SYSTEM TESTED: SYK (Homo sapiens, UniProt P43405)
- Construct: purchased Reaction Biology Corp., Malvern, Pa; (contract assay service)
- ASSAY PROTOCOL: SYK inhibition IC50 (Reaction Biology Corp.)
- Format: biochemical
- CONDITION CONTEXT: 10-point curve; read-out: SYK IC50
pIC50: −log10 of the molar value. Where a name gives a salt, the structure may show the parent alone.

# COMPOUND, SYSTEM TESTED, pIC50
rows = [
    ("Cc1nn(-c2ccnc(Nc3ccc(-c4csc5c(=O)cc(N6CCNCC6)oc45)cc3)n2)cc1CN1CC(O)C1 [Compound 2, dihydrochloride]", "SYK (Homo sapiens, UniProt P43405)", "> 7.00"),
    ("Cc1nn(-c2ccnc(Nc3ccc(-c4csc5c(=O)cc(N6CCOCC6)oc45)cc3)n2)cc1CN1CCC1 [Compound 3]", "SYK (Homo sapiens, UniProt P43405)", "> 7.00"),
    ("Cc1nn(-c2ccnc(Nc3ccc(-c4csc5c(=O)cc(N6CCOCC6)oc45)cc3)n2)cc1CN1CC(O)C1 [Compound 1]", "SYK (Homo sapiens, UniProt P43405)", "> 7.00"),
    ("Cc1nn(-c2ccnc(Nc3ccc(-c4csc5c(=O)cc(N6CCNCC6)oc45)cc3)n2)cc1CN1CCC1 [Compound 4, dihydrochloride]", "SYK (Homo sapiens, UniProt P43405)", "6.00 to 7.00"),
]

Value source: patent US11472814B2
